Tested on: IGROV-1
assay-details: SRB colorimetric assay of cell growth and viability, IGROV-1
Format: cell-based, human
measurement-conditions: 48 hours exposure
Where a SMILES comes first, the peptide text is derived from it. Bridges are numbered along the chain shown (N, C = ends). [ ]: non-standard residue; d: D form. The star is where a group is joined. d(aIle) = CC[C@H](C)[C@@H](N)C(=O)O; d(aThr) = C[C@@H](O)[C@@H](N)C(=O)O; Hexanoyl(5-Me) = CC(C)CCCC(=O)*; Orn = NCCC[C@H](N)C(=O)O; Dhb = C/C=C(\N)C(=O)O
measured-attribute: LC50 (concentration causing 50% net cell killing) (µM)
// units = µM; emit number, no label

Please report the recorded LC50 (concentration causing 50% net cell killing) for C/C=C1\NC(=O)[C@H](Cc2ccccc2)NC(=O)[C@@H](C(C)C)NC(=O)[C@@H]([C@@H](C)CC)NC(=O)[C@H](NC(=O)[C@H](NC(=O)[C@H](CCCN)NC(=O)[C@H]2CCCN2C(=O)[C@H](NC(=O)[C@@H]2CCCN2C(=O)[C@@H](NC(=O)[C@H](NC(=O)CCCC(C)C)C(C)C)[C@@H](C)O)C(C)C)[C@@H](C)CC)[C@@H](C)OC(=O)[C@H](C(C)C)NC1=O [Compound 47, [Pro^11]-KF] ({Hexanoyl(5-Me)}-[dV]TP[dV][dP][Orn][d(aIle)][d(aThr)][d(aIle)][dV]F[Dhb]V; ester 8-C) .
6.78

* * *

Test system: SK-MEL-28
assay-details: SRB colorimetric assay of cell growth and viability, SK-MEL-28
Type: cell-based, human
measurement-conditions: 48 hours exposure
Where a SMILES comes first, the peptide text is derived from it. Bridges are numbered along the chain shown (N, C = ends). [ ]: non-standard residue; d: D form. The star is where a group is joined. d(aIle) = CC[C@H](C)[C@@H](N)C(=O)O; d(aThr) = C[C@@H](O)[C@@H](N)C(=O)O; Hexanoyl(5-Me) = CC(C)CCCC(=O)*; Orn = NCCC[C@H](N)C(=O)O; Dhb = C/C=C(\N)C(=O)O
measured-attribute: TGI MEL-28 (Molar)
// units = Molar; emit number, no label

# compound, unit-of-measurement, TGI MEL-28
measured = [
    ("C/C=C1\\NC(=O)[C@H](Cc2ccccc2)NC(=O)[C@@H](C(C)C)NC(=O)[C@@H]([C@@H](C)CC)NC(=O)[C@H](NC(=O)[C@H](NC(=O)[C@H](CCCN)NC(=O)[C@H]2CCCN2C(=O)[C@H](NC(=O)[C@@H](NC(=O)[C@@H](NC(=O)[C@H](NC(=O)CCCC(C)C)C(C)C)C(C)C)C(C)C)C(C)C)[C@@H](C)CC)[C@@H](C)OC(=O)[C@H](C(C)C)NC1=O [Compound 6, [Val^12]-KF] ({Hexanoyl(5-Me)}-[dV]VV[dV][dP][Orn][d(aIle)][d(aThr)][d(aIle)][dV]F[Dhb]V; ester 8-C)", "Molar", "2.94E−07"),
]

SK-MEL-28 / TGI MEL-28 / C/C=C1\NC(=O)[C@H](Cc2ccccc2)NC(=O)[C@@H](C(C)C)NC(=O)[C@@H]([C@@H](C)CC)NC(=O)[C@H](NC(=O)[C@H](NC(=O)[C@H](CCCN)NC(=O)[C@H]2CCCN2C(=O)[C@H](NC(=O)[C@@H](NC(=O)[C@@H](NC(=O)[C@H](NC(=O)CCCCC(C)=O)C(C)C)[C@@H](C)O)C(C)C)C(C)C)[C@@H](C)CC)[C@@H](C)OC(=O)[C@H](C(C)C)NC1=O [Compound 27, [6-OHep^14]-KF] : value?
6.70E−06
